Test system: A431 cells
Test: Cellular proliferation (Alamar Blue) assay, A431
Type: cell-based
Conditions: Homo sapiens, A-431; A431 cells, 72 hr, Alamar Blue; read-out: A431 IC50
Recorded metric: IC50 (nM)

Field: example entries. Status: answers known.
- Compound: "C=CC(=O)Nc1ccc(F)c(Nc2nc(Nc3cn(C)nc3Cl)ncc2-c2ccc(Br)cc2)c1 [Compound 204]"
  Assayed target: "A431 cells"
  Observed result: 28
- Compound: "C=CC(=O)Nc1ccc(F)c(Nc2nc(Nc3cnn(C)c3)ncc2-c2cccc(Br)c2)c1 [Compound 201]"
  Assayed target: "A431 cells"
  Observed result: 1520

[I] C=CC(=O)Nc1cc(Br)cc(Nc2nc(Nc3cnn(C)c3)ncc2Cl)c1 [Compound 283]
[II] Cn1cc(Nc2ncc(-c3ccc(C(F)(F)F)cc3)c(Nc3cc(NC(=O)CCl)ccc3F)n2)cn1 [Compound 252]
Q: Name the one with the greater IC50 value, either I or II as given. Pick one and reply with its label.
A: II
(II: 1180 nM, I: 617 nM)

* * *

Biological target: HER2 (A775_G776insYVMA) expressing Ba/F3 stable cell line (Homo sapiens, UniProt P04626, DUP772-775, cells depend on it)
Sequence (P04626 with tags, fused parts or gaps DUP772-775): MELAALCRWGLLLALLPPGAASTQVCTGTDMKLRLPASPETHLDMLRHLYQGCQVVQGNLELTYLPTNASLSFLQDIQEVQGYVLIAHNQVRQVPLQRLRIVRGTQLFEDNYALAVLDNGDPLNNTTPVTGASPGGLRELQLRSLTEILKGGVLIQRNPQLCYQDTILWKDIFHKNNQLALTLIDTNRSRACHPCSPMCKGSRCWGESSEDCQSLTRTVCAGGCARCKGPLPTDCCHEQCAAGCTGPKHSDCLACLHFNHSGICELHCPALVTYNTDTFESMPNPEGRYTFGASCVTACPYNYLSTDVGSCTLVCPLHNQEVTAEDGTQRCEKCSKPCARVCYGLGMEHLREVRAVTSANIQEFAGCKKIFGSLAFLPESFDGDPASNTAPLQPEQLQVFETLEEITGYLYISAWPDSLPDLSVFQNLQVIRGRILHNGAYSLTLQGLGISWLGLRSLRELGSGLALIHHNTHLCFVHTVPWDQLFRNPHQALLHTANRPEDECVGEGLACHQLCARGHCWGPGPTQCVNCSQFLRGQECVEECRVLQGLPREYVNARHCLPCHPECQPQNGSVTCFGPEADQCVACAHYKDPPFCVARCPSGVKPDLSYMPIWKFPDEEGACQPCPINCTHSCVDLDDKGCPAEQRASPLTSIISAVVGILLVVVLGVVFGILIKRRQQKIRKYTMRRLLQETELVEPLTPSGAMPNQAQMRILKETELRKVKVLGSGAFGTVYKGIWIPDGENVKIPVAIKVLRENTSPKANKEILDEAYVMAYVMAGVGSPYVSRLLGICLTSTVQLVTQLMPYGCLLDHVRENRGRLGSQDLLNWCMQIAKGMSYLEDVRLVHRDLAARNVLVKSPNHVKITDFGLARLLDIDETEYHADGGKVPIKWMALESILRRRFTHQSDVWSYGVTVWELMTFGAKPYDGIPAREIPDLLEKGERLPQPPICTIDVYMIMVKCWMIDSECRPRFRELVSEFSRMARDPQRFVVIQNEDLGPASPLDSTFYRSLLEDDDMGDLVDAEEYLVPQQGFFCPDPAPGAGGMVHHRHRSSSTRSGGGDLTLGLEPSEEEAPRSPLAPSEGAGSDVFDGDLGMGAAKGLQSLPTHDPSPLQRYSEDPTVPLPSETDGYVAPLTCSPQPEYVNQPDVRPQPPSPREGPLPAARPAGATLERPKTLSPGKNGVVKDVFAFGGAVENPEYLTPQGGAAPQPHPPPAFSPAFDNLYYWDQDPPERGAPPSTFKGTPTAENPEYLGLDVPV
Assay: Cellular proliferation (Alamar Blue) assay, HER2 A775_G776insYVMA Ba/F3
Format: cell-based
Conditions: 72 hr, read-out: YVMA IC50
Recorded metric: GI50 (nM)

Field: example entries. Status: answers known.
- Compound: "C=CC(=O)Nc1ccc(F)c(Nc2nc(Nc3cnn(C)c3)ncc2-c2ccc(C(F)(F)F)cc2)c1 [Compound 37]"
  Result unit: "nM"
  Observed result: 974
- Compound: "C=CC(=O)Nc1ccc(F)c(Nc2nc(Nc3cnn(C)c3)ncc2-c2ccc(C3(C(F)(F)F)CC3)cc2)c1"
  Result unit: "nM"
  Observed result: 803
- Compound: "C=CC(=O)Nc1ccc(F)c(Nc2nc(Nc3cnn(CCN(C)C)c3)ncc2Cl)c1"
  Result unit: "nM"
  Observed result: 874

[1] C=CC(=O)Nc1ccc(Cl)c(Nc2nc(Nc3cnn(C)c3)ncc2-c2ccc(Br)cc2)c1
[2] C=CC(=O)Nc1ccc(F)c(Nc2nc(Nc3cnn(C4CCN(C)CC4)c3)ncc2Cl)c1
[3] C=CC(=O)Nc1ccc(F)c(Nc2nc(Nc3cnn(C)c3)ncc2-c2ccc(OC)nc2)c1
[4] C=CC(=O)Nc1ccc(F)c(Nc2nc(Nc3cnn(C)c3)ncc2-c2cncc(C(F)F)c2)c1
Q: Could you please order the items by GI50, going from the lowest number to the highest? // list labels; follow requested order
A: 4, 3, 2, 1

* * *

Target: EGFR(D770_N771insSVD) expressing Ba/F3 stable cell line (Homo sapiens, UniProt P00533, DUP768-770, cells depend on it)
Sequence (P00533 with tags, fused parts or gaps DUP768-770): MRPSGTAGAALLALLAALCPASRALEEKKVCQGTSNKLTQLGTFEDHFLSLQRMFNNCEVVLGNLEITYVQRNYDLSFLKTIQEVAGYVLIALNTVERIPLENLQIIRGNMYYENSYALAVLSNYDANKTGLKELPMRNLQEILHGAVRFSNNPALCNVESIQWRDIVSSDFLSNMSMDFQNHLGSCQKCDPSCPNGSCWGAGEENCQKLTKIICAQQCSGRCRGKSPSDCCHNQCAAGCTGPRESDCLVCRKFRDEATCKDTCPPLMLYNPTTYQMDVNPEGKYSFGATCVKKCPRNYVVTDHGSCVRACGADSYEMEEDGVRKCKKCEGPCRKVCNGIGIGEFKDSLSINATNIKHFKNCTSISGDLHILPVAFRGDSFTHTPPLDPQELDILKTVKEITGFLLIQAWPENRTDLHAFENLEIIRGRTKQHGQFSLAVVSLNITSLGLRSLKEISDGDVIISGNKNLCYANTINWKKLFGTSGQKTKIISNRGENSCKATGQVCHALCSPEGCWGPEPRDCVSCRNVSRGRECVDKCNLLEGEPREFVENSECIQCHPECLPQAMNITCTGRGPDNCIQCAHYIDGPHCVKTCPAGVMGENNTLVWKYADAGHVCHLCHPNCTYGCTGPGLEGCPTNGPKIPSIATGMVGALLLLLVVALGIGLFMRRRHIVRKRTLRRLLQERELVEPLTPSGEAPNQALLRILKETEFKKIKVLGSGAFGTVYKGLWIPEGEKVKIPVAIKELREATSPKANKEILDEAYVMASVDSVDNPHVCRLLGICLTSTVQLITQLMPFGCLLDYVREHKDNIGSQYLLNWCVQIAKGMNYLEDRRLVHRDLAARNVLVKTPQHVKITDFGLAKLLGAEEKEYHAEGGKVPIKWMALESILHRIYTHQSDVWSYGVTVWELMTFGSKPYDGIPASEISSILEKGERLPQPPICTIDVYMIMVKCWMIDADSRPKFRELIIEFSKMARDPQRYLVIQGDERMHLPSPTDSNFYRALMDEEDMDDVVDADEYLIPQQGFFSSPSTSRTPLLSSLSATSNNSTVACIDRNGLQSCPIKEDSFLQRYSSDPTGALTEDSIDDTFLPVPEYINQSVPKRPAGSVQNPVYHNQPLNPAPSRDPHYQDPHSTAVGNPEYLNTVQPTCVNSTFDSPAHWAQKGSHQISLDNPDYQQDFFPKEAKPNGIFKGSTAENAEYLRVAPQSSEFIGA
Test: Cellular proliferation (Alamar Blue) assay, EGFR D770_N771insSVD Ba/F3
Type: cell-based
Conditions: 72 hr, read-out: D770 IC50
Where a name gives a salt, the structure may show the parent alone.
Recorded metric: GI50 (nM)

- Compound: "C=CC(=O)Nc1ccc(F)c(Nc2nc(Nc3cccnc3F)ncc2-c2ccc(C(F)(F)F)cc2)c1 [Compound 38]"
  GI50 / nM: 360
- Compound: "C=CC(=O)Nc1ccc(F)c(Nc2nc(Nc3cnn(C4CCN(C)CC4)c3)ncc2-c2ccc(C(F)(F)F)cc2)c1 [Compound 85]"
  GI50 / nM: 109

[P] C=CC(=O)Nc1cccc(Nc2nc(Nc3cnn(C)c3)ncc2-c2cccc(F)c2)c1 [Compound 115, trifluoroacetate]
[Q] C=CC(=O)Nc1ccc(F)c(Nc2nc(Nc3ccccc3)ncc2-c2ccc(C(F)(F)F)cc2)c1 [Compound 121]
[R] C=CC(=O)Nc1ccc(F)c(Nc2nc(Nc3cn(C)nc3Cl)ncc2-c2ccc(C(F)(F)F)cc2)c1 [Compound 112, trifluoroacetate]
[S] C=CC(=O)Nc1ccc(F)c(Nc2nc(Nc3cnn(C)c3)ncc2-c2ccc3c(ccn3C)c2)c1 [Compound 77, trifluoroacetate]
Q: Could you please order the items by GI50, going from the lowest number to the highest? // list labels; follow requested order
A: P, R, S, Q

* * *

Molecular target: EGFR (A767_dupASV) expressing Ba/F3 stable cell line (Homo sapiens, UniProt P00533, DUP767-769, cells depend on it)
Sequence (P00533 with tags, fused parts or gaps DUP767-769): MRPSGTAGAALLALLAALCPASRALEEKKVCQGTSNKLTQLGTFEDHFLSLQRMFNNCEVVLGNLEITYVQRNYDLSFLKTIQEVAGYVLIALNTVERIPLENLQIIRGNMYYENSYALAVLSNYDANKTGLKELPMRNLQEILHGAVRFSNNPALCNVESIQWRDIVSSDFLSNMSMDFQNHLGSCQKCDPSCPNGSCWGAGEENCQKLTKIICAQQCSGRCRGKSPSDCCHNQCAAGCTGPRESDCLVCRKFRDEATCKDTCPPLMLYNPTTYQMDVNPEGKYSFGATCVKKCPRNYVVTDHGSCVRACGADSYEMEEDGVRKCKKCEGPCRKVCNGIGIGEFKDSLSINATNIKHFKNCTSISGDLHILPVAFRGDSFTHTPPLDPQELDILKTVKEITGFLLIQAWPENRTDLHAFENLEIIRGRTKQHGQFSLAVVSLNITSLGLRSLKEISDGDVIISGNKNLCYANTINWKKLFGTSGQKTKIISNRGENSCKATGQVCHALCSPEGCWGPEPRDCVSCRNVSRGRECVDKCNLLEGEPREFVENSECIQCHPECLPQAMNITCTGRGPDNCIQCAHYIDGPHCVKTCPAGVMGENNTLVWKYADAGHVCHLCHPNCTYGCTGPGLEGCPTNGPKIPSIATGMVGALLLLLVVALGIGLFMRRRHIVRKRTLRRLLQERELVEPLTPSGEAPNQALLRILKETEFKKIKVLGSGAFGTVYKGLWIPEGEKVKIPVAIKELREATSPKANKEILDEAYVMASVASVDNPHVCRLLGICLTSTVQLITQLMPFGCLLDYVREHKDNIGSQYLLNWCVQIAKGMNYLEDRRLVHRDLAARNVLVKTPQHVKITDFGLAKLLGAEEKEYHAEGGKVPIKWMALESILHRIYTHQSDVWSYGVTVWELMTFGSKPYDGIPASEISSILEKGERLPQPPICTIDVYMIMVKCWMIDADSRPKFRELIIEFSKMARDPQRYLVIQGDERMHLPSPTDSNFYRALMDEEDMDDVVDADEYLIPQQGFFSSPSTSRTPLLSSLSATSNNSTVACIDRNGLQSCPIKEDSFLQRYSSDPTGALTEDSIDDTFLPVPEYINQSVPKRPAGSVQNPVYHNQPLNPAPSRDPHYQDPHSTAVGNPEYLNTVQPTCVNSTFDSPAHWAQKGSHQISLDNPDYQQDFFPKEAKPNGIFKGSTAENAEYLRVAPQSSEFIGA
Experiment: Cellular proliferation (Alamar Blue) assay, EGFR A767_dupASV Ba/F3
Type: cell-based
Conditions: 72 hr, read-out: A767 IC50
Recorded metric: GI50 (nM)

- Structure notation: "C=CC(=O)Nc1cccc(Nc2nc(Nc3cnn(C)c3)ncc2-c2ccc(C(F)(F)F)cc2)n1"
  Recorded metric: "GI50"
  Observed result: 448

[a] C=CC(=O)Nc1ccc(F)c(Nc2nc(Nc3cnn(C)c3)ncc2-c2ccccc2F)c1
[b] C=CC(=O)Nc1ccc(F)c(Nc2nc(Nc3cnn(C)c3)ncc2-c2ccc3cccnc3c2)c1
Q: Name the one with the greater GI50 value, either a or b as given. Pick one and reply with its label.
A: b
(b: 758 nM, a: 237 nM)

* * *

Biological target: EGFR(D770_N771insSVD) expressing Ba/F3 stable cell line (Homo sapiens, UniProt P00533, DUP768-770, cells depend on it)
Experiment: Cellular proliferation (Alamar Blue) assay, EGFR D770_N771insSVD Ba/F3
Assay type: cell-based
Details: 72 hr, read-out: D770 IC50
Structures can show the parent of a compound that is named as a salt.
Recorded metric: GI50 (nM)

Field: example entries. Status: answers known.
- Compound: "C=CC(=O)Nc1ccc(F)c(Nc2nc(Nc3cnn(C)c3)ncc2-c2cccnc2OC)c1"
  Observed result: 934
- Compound: "C=CC(=O)Nc1ccc(F)c(Nc2nc(Nc3cnn(C)c3)ncc2-c2ccc(Br)cc2)c1 [Compound 75, trifluoroacetate]"
  Observed result: 35
- Compound: "C=CC(=O)Nc1ccc(F)c(Nc2nc(Nc3cnn(C)c3)ncc2Br)c1"
  Observed result: 923

[I] C=CC(=O)Nc1ccc(F)c(Nc2nc(Nc3cn(CCN(C)C)nc3Cl)ncc2-c2ccc(C(F)(F)F)cc2)c1
[II] C=CC(=O)Nc1cccc(Nc2nc(Nc3cnn(C)c3)ncc2-c2ccc(Br)cc2)c1F
Q: # compare GI50 for I vs II ; return the one with the smaller value Pick one and reply with its label.
A: II
(II: 35 nM, I: 123 nM)

[I] C=CC(=O)Nc1ccc(F)c(Nc2nc(Nc3cnn(C4CCC(O)CC4)c3)ncc2Cl)c1 (stereo not shown)
[II] C=CC(=O)Nc1ccc(F)c(Nc2nc(Nc3cn(C)nc3C(F)(F)F)ncc2-c2ccc(C(F)(F)F)cc2)c1 [Compound 146, trifluoroacetate]
Q: # compare GI50 for I vs II ; return the one with the smaller value Pick one and reply with its label.
A: II

* * *

Molecular target: EGFR(D770_N771insSVD) expressing Ba/F3 stable cell line (Homo sapiens, UniProt P00533, DUP768-770, cells depend on it)
Assay: Cellular proliferation (Alamar Blue) assay, EGFR D770_N771insSVD Ba/F3
Type: cell-based
Conditions: 72 hr, read-out: D770 IC50
Structures can show the parent of a compound that is named as a salt.
Recorded metric: GI50 (nM)

[A] C=CC(=O)Nc1cccc(Nc2nc(Nc3cnn(C)c3)ncc2-c2cncc(C(F)F)c2)c1 [Compound 144, trifluoroacetate]
[B] C=CC(=O)Nc1ccc(F)c(Nc2nc(Nc3cccnc3)ncc2-c2ccc(C(F)(F)F)cc2)c1
[C] C=CC(=O)Nc1cccc(Oc2nc(Nc3cnn(C)c3)ncc2C2=CCOCC2)c1
[D] C=CC(=O)Nc1cccc(Nc2nc(Nc3cnn(C)c3)ncc2-c2ccc(C(F)(F)F)cc2)n1
Q: Falling order of GI50, please. // list labels; follow requested order
A: B, D, C, A
(B: 724 nM, D: 395 nM, C: 267 nM, A: 37 nM)

* * *

Target: EGFR (A767_dupASV) expressing Ba/F3 stable cell line (Homo sapiens, UniProt P00533, DUP767-769, cells depend on it)
Experiment: Cellular proliferation (Alamar Blue) assay, EGFR A767_dupASV Ba/F3
Format: cell-based
Settings: 72 hr, read-out: A767 IC50
Counter-ions that a name gives are not always drawn.
Recorded metric: GI50 (nM)

- Compound: "C=CC(=O)Nc1ccc(F)c(Nc2nc(Nc3cnn(C)c3)ncc2C(F)(F)F)c1 [Compound 36]"
  Result unit: "nM"
  GI50: 332

[P] C=CC(=O)Nc1ccc(F)c(Nc2nc(Nc3ccc(CN(C)C)cc3)ncc2-c2ccc(C(F)(F)F)cc2)c1 [Compound 45, trifluoroacetate]
[Q] C=CC(=O)Nc1ccc(F)c(Nc2nc(Nc3cnn(C)c3)ncc2-c2ccc(Cl)nc2)c1 [Compound 101]
[R] C=CC(=O)Nc1ccc(C(=O)Nc2ccccc2)c(Nc2nc(Nc3cnn(C)c3)ncc2Cl)c1 [Compound 163]
Q: Hello, I need these entries ordered by GI50, highest reading first. Thanks! // list labels; follow requested order
A: R, P, Q

[a] C=CC(=O)Nc1ccc(F)c(Nc2nc(Nc3cnn(C)c3)ncc2-c2ccc(NC(C)=O)cc2)c1 [Compound 58]
[b] C=CC(=O)Nc1ccc(F)c(Nc2nc(Nc3cnn(C)c3)ncc2-c2ccc3[nH]ccc3c2)c1 [Compound 97]
Q: # compare GI50 for a vs b ; return the one with the smaller value Pick one and reply with its label.
A: b
(b: 862 nM, a: 2660 nM)

[A] C=CC(=O)Nc1ccc(F)c(Nc2nc(Nc3cnn(C)c3)ncc2-c2cncc(OC(F)F)c2)c1 [Compound 95]
[B] C=CC(=O)Nc1cc(F)cc(Nc2nc(Nc3cnn(C)c3)ncc2-c2ccc(C(F)(F)F)cc2)c1 [Compound 239]
Q: Name the one with the greater GI50 value, either A or B as given. Pick one and reply with its label.
A: B
(B: 91 nM, A: 27 nM)
